TGT: T1, human ICOS (human, UniProt Q9Y6W8 21-199)
T1 sequence: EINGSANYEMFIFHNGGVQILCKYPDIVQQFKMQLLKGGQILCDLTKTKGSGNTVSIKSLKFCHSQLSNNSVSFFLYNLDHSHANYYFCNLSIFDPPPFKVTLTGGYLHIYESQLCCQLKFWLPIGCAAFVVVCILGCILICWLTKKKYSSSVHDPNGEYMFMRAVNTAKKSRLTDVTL
TEST_DESCRIPTION: cell-based or functional assay
READOUT_TYPE: EC50 of activation of Jurkat-NFAT reporter cell line (luminescence) (nM)
Enter your answer as a number in nM; do not include the unit.

Known results for binders:
BINDER	UNITS	MEAS_VALUE
Molecule 8 (rbIgG of 1167) (antibody, V domains shown, Rabbit IgG format, from transgenic rabbit; also called ICOS (1167); clone 1167) VH: EVRLLESGGGLVQPGGSLRLSCAASGFTFNTYAVHWVRQAPGKGLEWVSGIGGSGVRTYYADSVKGRLTISRDNSKNTLYLQMNSLRAEDTAIYFCAKDIYVADFTGYAFDIWGQGTMVTVSS VL: DIQMTQSPSSVSASVGDRVTITCRASQGINNFLAWYQQKPGKAPKLLIYDASSLQSGVPSRFAGSGSGTDFTLTISSLQPEDFATYYCQQYNFYPLTFGGGTMVEIKR	nM	0.13
Molecule 18 (rbIgG of 1138) (antibody, V domains shown, Rabbit IgG format; also called ICOS (1138); clone 1138) VH: QSLEESGGDLVKPGASLTLTCTASGFDLSSYYYMCWVRQAPGKGLEWIACIYADIYGGTTHYASWAKGRFTISKTSSTTVTLQMTSLTAADTATYFCAREDGSRYGGSGYYNLWGPGTLVTVSS VL: ALVMTQTPSSVSAAVGGTVTINCQASQNIYSNLAWYQQKPGQPPKLLIYAASYLTSGVSSRFKGSGAGTQFTLTISGVECADAATYYCQQGHTTDNIDNAFGGGTEVVVKG	nM	0.09

Query: EC50 of activation of Jurkat-NFAT reporter cell line (luminescence); subject: Molecule 20 (rbIgG of 1143) (antibody, V domains shown, Rabbit IgG format; also called ICOS (1143); clone 1143) VH: QSLEESGGDLVKPGASLTLTCKASGFDFSSAYDMCWVRQAPGKGLEWIGCVYYGDGITYYATWAKGRFTISKTSSTTVPLQMTSLTAADTATYFCARGAFLGSSYYLSLWGQGTLVTVSS VL: AIDMTQTPASVEAAVGGTVTINCQASENIYNWLAWYQQKPGQPPKLLIYDASKLASGVPSRFSASGSGTQFTLTISAVECADAATYYCQQAYTYGNIDNAFGGGTEVVVSG
Reply: 0.02

Query: Which value of EC50 of activation of Jurkat-NFAT reporter cell line (luminescence) has been reported for Molecule 14 (muIgG of 009) (antibody, V domains shown, Mouse IgG purified from hybridoma; also called ICOS (009); clone 009) VH: EVRLDETGGGVVQPGRPMELSCVASGFTFSDYWMNWVRQSPEKGLEWVAQIRNKPYNYETYYSDSVKGRFTISRDDSKSRVYLQMNNLRAEDMGIYYCTWPRLRSSDWHFDVWGAGTTVTVSS VL: AIQMTQSPSSLSASLGGEVTITCKASQDINKNIAWYQHKPGRGPRLLIWYTSTLQTGIPSRFSGSGSGRDYSFTISNLEPEDFATYYCLQFDNLYTFGSGTKLEIR in the records?
Reply: 0.08
